target: UniProt O60674; assay: Jak Biochemical HTRF Assay, JAK2; details: HTRF biochemical assay, GST-tagged catalytic domain; top concentration tested […]
Sequence (O60674 849-1124): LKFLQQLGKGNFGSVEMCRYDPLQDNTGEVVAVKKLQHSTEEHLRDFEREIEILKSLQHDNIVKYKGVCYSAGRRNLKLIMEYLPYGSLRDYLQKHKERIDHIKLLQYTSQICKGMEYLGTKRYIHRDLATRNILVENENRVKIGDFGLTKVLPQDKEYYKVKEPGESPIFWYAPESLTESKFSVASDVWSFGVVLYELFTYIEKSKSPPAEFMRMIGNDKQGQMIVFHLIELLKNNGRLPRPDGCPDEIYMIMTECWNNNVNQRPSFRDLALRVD
pIC50: −log10 of the molar value.
Decide by pIC50: equal to or exceeding 7 means T, less means F.

Look over these answered cases.
                                   compound  cat
0  Cc1cccc(N2CCC(CC#N)(n3cc(C(N)=O)c(Nc4ccc(F)cc4)n3)CC2)c1F [Example 3-43]    F
1  N#CCC1(n2cc(C(N)=O)c(Nc3ccnc(F)c3)n2)CCN(Cc2nc3ccccc3[nH]2)CC1 [Example 22-41]    F
2  Cc1c(CN2CCC(CC#N)(n3cc(C(N)=O)c(Nc4ccnc(F)c4)n3)CC2)cnn1C [Example 22-40]    F

API: above_or_equal(metric=pIC50, cutoff=7) for item N#CCC1(n2cc(C(N)=O)c(Nc3ccc(F)cc3)n2)CCN(Cc2cnccn2)CC1 [Example 22-52] T

// repeat for N#CCC1(n2cc(C(N)=O)c(Nc3ccnc(F)c3)n2)CCC(NCc2ccccc2F)CC1 (stereo not shown) [Example 41-21] and report F
